organism: Mus musculus; experiment: Toxicity in mouse assessed as concentration required for producing T/C of 140; assay type: organism-based; settings: in vivo

| COMPOUND | log(1/C) |
| --- | --- |
| CCCCCN(CCCCC)/N=N/c1[nH]cnc1C(N)=O | 3.49 |
| CN(C)/N=N/c1[nH]cnc1C(N)=O [DACARBAZINE] | 2.44 |
| CCCCN(CCCC)/N=N/c1[nH]cnc1C(N)=O | 2.91 |
| CCN(CC)/N=N/c1[nH]cnc1C(N)=O | 2.75 |
| CCCN(CCC)/N=N/c1[nH]cnc1C(N)=O | 2.7 |

###

Listed here are compounds together with their documented log(1/C).
organism: Mus musculus; assay: Toxicity in CDF1 mouse assessed as concentration required for producing T/C of 140; assay type: organism-based; settings: in vivo

| SMILES_NOTATION | log(1/C) |
| --- | --- |
| CCN(C)/N=N/c1ccc(C(N)=O)cc1 | 3.24 |
| Cc1ccc(/N=N/N(C)C)cc1 | 3.26 |
| COc1ccc(/N=N/N(C)C)cc1 | 3.55 |
| CN(C)/N=N/c1ccc(NC(N)=O)cc1 | 3.68 |
| CCCCCCCCN(C)/N=N/c1ccc(C(N)=O)cc1 | 2.8 |
| CN(C)/N=N/c1ccc(S(N)(=O)=O)cc1 | 3.2 |
| CN(C)/N=N/c1ccccc1 | 3.43 |

###

organism: Mus musculus; experiment: Toxicity in CDF1 mouse assessed as concentration required for producing T/C of 140; assay type: organism-based; details: in vivo
One threshold, 3, splits the recorded log(1/C) values: lower ones are Y, equal or higher ones are N.

| SMILES_NOTATION | LABEL_VALUE |
| --- | --- |
| CN(C)/N=N/c1ccc(C#N)cc1 | N |
| CCCCN(C)/N=N/c1ccc(C(N)=O)cc1 | N |
| CN(C)/N=N/c1[nH]cnc1C(N)=O | Y |
| CN(C)/N=N/c1ccc(C(N)=O)cc1 | N |
